Biological target: GST-Dm-Relish (Drosophila melanogaster, UniProt Q94527 99-473)
Sequence: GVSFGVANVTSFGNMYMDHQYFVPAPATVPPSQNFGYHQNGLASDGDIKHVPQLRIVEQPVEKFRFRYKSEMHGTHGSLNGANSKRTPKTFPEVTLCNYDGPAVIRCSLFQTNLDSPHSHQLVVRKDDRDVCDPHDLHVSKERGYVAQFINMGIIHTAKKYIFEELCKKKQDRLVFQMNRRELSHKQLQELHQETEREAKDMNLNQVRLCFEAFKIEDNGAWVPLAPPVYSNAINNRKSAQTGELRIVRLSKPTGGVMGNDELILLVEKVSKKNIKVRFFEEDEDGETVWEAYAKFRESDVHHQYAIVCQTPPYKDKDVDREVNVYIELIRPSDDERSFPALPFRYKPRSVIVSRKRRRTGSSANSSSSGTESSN
Test: protein-binding microarray (PBM); PBM: ~300 nM protein, 6 mM HEPES pH 7.8, 80 mM KCl, 0.5 mM EDTA, 0.5 mM EGTA, 6% glycerol, 35 ng/ul poly-dIdC, 1% milk, 1 h, room temperature; Ap Aiptasia and Nv Nematostella (sea anemones) / Co Capsaspora / Aq Amphimedon (sponge) / Dm Drosophila / Hu human; RHD is the Rel homology domain; high values mean tight binding
Conditions: dsDNA, one strand shown
Listed here: items and their measured binding signal.
Endpoint name: binding signal

Sequence record: CCGATTAACATCAAAAAAAATCCTGATGTTAATCGGGTCTTGATTCGCTTGACGCTGCTG
Endpoint name: binding signal
Meas value: 3.09 z-score

Sequence record: CCGATTAACATCAGGGGGATCCATGATGTTAATCGGGTCTTGATTCGCTTGACGCTGCTG
Endpoint name: binding signal
Meas value: 7.45 z-score

Sequence record: CCGATTAACATCAAGGGATTTCCTGATGTTAATCGGGTCTTGATTCGCTTGACGCTGCTG
Endpoint name: binding signal
Meas value: 7.74 z-score

Sequence record: CCGATTAACATCAGGGGTTTACCTGATGTTAATCGGGTCTTGATTCGCTTGACGCTGCTG
Endpoint name: binding signal
Meas value: 9.7 z-score

Sequence record: CCGATTAACATCAGGAGTTTCCATGATGTTAATCGGGTCTTGATTCGCTTGACGCTGCTG
Endpoint name: binding signal
Meas value: 1.28 z-score

Sequence record: CCGATTAACATCAAAAGGGGATATGATGTTAATCGGGTCTTGATTCGCTTGACGCTGCTG
Endpoint name: binding signal
Meas value: 2.06 z-score

Sequence record: CCGATTAACATCAAATTTCCCTATGATGTTAATCGGGTCTTGATTCGCTTGACGCTGCTG
Endpoint name: binding signal
Meas value: 2.55 z-score

Sequence record: CCGATTAACATCATGGGAAAAAATGATGTTAATCGGGTCTTGATTCGCTTGACGCTGCTG
Endpoint name: binding signal
Meas value: 1.7 z-score

Sequence record: CCGATTAACATCAAATTTACCCCTGATGTTAATCGGGTCTTGATTCGCTTGACGCTGCTG
Endpoint name: binding signal
Meas value: 3.85 z-score

Sequence record: CCGATTAACATCAAAAAGTCCCGTGATGTTAATCGGGTCTTGATTCGCTTGACGCTGCTG
Endpoint name: binding signal
Meas value: 9 z-score

Sequence record: CCGATTAACATCAAGGGAGTCCCTGATGTTAATCGGGTCTTGATTCGCTTGACGCTGCTG
Endpoint name: binding signal
Meas value: 8.56 z-score

Sequence record: CCGATTAACATCAGATTTCCCCATGATGTTAATCGGGTCTTGATTCGCTTGACGCTGCTG
Endpoint name: binding signal
Meas value: 3.76 z-score

Sequence record: CCGATTAACATCAAACTACCCCCTGATGTTAATCGGGTCTTGATTCGCTTGACGCTGCTG
Endpoint name: binding signal
Meas value: 2.49 z-score

Sequence record: CCGATTAACATCAGGAAATCCCCTGATGTTAATCGGGTCTTGATTCGCTTGACGCTGCTG
Endpoint name: binding signal
Meas value: 10.3 z-score

Sequence record: CCGATTAACATCAGGGAAATCCATGATGTTAATCGGGTCTTGATTCGCTTGACGCTGCTG
Endpoint name: binding signal
Meas value: 5.65 z-score
